These entries and their values trace back to PubChem BioAssay AID1259418.

Target: T. gondii ME49Luc in IFN-y HeLa, luciferase, 72 h
Test: T. gondii growth inhibition with IFN-gamma, dose response, cell-based, ME49Luc, HeLa, luciferase, 72 h (AID 1259418)
Records with an inconclusive call do not appear.
OUTCOME MEASURE: AC50

- MOLECULE: "COc1ccc(-c2nc(CN(c3ccccc3)S(=O)(=O)c3ccccc3)c(C)o2)cc1OC"
  MEASUREMENT: "3.77 µM"
- MOLECULE: "O=C(Cc1cccnc1)N1CC(=O)N2[C@H](CO)[C@@H](c3ccc(C#CC4CCCCC4)cc3)[C@H]2C1"
  MEASUREMENT: "16.4 µM"
- MOLECULE: "OC(c1cc(C(F)(F)F)nc2c(C(F)(F)F)cccc12)C1CCCCN1 (stereo not given)"
  MEASUREMENT: "6.5 µM"
- MOLECULE: "O=C(c1ccc(F)cc1)N1CC(=O)N2[C@H](C1)[C@H](c1ccc(C#CCC3CCCC3)cc1)[C@@H]2CO"
  MEASUREMENT: "10.6 µM"
- MOLECULE: "CC(C)CC#Cc1ccc([C@H]2[C@H]3CN(C(=O)c4cccc(F)c4)CC(=O)N3[C@H]2CO)cc1"
  MEASUREMENT: "20.3 µM"
